Source listed as PubChem BioAssay (NCI).

Recorded TGI for the following molecules
System: BT-549 breast
Test: NCI tumour cell line growth inhibition, 48 h
Express it in µM; write the number only.

Answered examples (5):
Look up TGI: CCC(CC)COC(=O)[C@H](C)N[P@](=O)(OC[C@H]1O[C@@](C#N)(c2ccc3c(N)ncnn23)[C@H](O)[C@@H]1O)Oc1ccccc1
50.7

Look up TGI: COc1ccc(-c2cc3c(OC)c(OC)c(OC)cc3oc2=O)cc1
71.6

Look up TGI: CCN(CC)CCCN1C(=O)c2c(c(C)c3c(oc4ccc(O)cc43)c2C)C1=O
3.26

Look up TGI: CC(C)=CCc1c(O)c(CC2=C(O)C(C)=C(O)C(CC=C(C)C)(C(=O)C(C)C)C2=O)c(O)c(C(=O)C(C)C)c1O (configuration not stated)
36.9

Look up TGI: Brc1sc(Br)c2c1[C@H](Br)C[C@@H]2Br
79

New cases:
Look up TGI: COc1cc(-c2cc(/C=C3\C(=O)Nc4ccc(Cl)cc43)[nH]n2)cc(OC)c1OC
7.16

Look up TGI: CN(CCO)C1CCN(c2ccc(Nc3ncc4c5ccnc(F)c5n(C5CCCC5)c4n3)nc2)CC1
31.4

Look up TGI: O=C(Nc1cccc(-n2cc(-c3ccncc3)c(-c3ccc(Cl)c(O)c3)n2)c1)Nc1cccc(C(F)(F)F)c1
21.4

Look up TGI: O=C(C(Br)C(Br)c1ccccc1)C(Br)C(Br)c1ccccc1 (configuration not stated)
3.39

Look up TGI: CN1CN(c2ccccc2)C2(CCN(Cc3nc4ccccc4s3)CC2)C1=O
30.3

Look up TGI: CC(C)(C)CC(C)(C)c1ccc(OCCSC(=N)N)cc1
4.8
